Assay: Plasma pharmacokinetics of aqueous ENT-03S solution without cyclodextrin after subcutaneous injection
Type: in vivo, rat
Conditions: male, Sprague-Dawley, rat, plasma, sc, 10 mg/kg, 2 mg/ml, 10 mg/kg SC, male SD rats, 24 h, individual rats, read-out: Concentration (ng/ml) Rat 1-3
TEST READOUT: concentration at 24 h (ng/mL)
Respond numerically; units are ng/mL and should not be typed.

Request: May I ask what concentration at 24 h has been recorded for C[C@H](CCC[C@H](C)C(=O)O)[C@H]1CCC2C3C(CC[C@@]21C)[C@@]1(C)CC[C@H](NCCCNCCCCNCCCN)C[C@@H]1C[C@H]3O (stereo partly drawn) [ENT-03S] ?
Response: 43300

====

Experiment: Plasma pharmacokinetics of ENT-03S cyclodextrin formulation after subcutaneous injection
Type: in vivo, rat
Conditions: male, Sprague-Dawley, rat, plasma, sc, 10 mg/kg, 20% beta-cyclodextrin formulation; 10 mg/kg SC; male SD rats; 24 h; mean; read-out: Concentration Mean
TEST READOUT: concentration at 24 h
Show the value, then the unit it is measured in.

Request: # lookup: concentration at 24 h of C[C@H](CCC[C@H](C)C(=O)O)[C@H]1CCC2C3C(CC[C@@]21C)[C@@]1(C)CC[C@H](NCCCNCCCCNCCCN)C[C@@H]1C[C@H]3O (stereo partly drawn) [ENT-03S]
Response: 12300 ng/mL

====

Test: Plasma pharmacokinetics of ENT-03S cyclodextrin formulation after subcutaneous injection
Format: in vivo, rat
Conditions: male, Sprague-Dawley, rat, plasma, sc, 10 mg/kg, 20% beta-cyclodextrin formulation; SC Dose 10 mg/kg; male SD rats; plasma; mean; read-out: T1/2 Mean (converted)
TEST READOUT: half-life (h)
Give the value in h but do not write h after it.

Request: Value lookup for half-life; key = C[C@H](CCC[C@H](C)C(=O)O)[C@H]1CCC2C3C(CC[C@@]21C)[C@@]1(C)CC[C@H](NCCCNCCCCNCCCN)C[C@@H]1C[C@H]3O (stereo partly drawn) [ENT-03S]
Response: 22.4

====

Assay: Plasma pharmacokinetics of ENT-03S cyclodextrin formulation after subcutaneous injection
Assay type: in vivo, rat
Conditions: male, Sprague-Dawley, rat, plasma, sc, 10 mg/kg, 20% beta-cyclodextrin formulation; 10 mg/kg SC; male SD rats; 4 h; individual rats; read-out: Concentration (ng/ml) Rat 1-3
TEST READOUT: concentration at 4 h (ng/mL)
Unit ng/mL implied. Number only.

Request: What value of concentration at 4 h has been reported for the following compound? C[C@H](CCC[C@H](C)C(=O)O)[C@H]1CCC2C3C(CC[C@@]21C)[C@@]1(C)CC[C@H](NCCCNCCCCNCCCN)C[C@@H]1C[C@H]3O (stereo partly drawn) [ENT-03S]
Response: 25700

====

Experiment: Plasma pharmacokinetics of ENT-03S cyclodextrin formulation after subcutaneous injection
Assay type: in vivo, rat
Settings: male, Sprague-Dawley, rat, plasma, sc, 10 mg/kg, 20% beta-cyclodextrin formulation; 10 mg/kg SC; male SD rats; 0.25 h; individual rats; read-out: Concentration (ng/ml) Rat 1-3
TEST READOUT: concentration at 0.25 h (ng/mL)
Numbers only here, please. The scale is ng/mL.

Request: Which value of concentration at 0.25 h has been reported for C[C@H](CCC[C@H](C)C(=O)O)[C@H]1CCC2C3C(CC[C@@]21C)[C@@]1(C)CC[C@H](NCCCNCCCCNCCCN)C[C@@H]1C[C@H]3O (stereo partly drawn) [ENT-03S] in the records?
Response: 23100

====

Assay: Plasma pharmacokinetics of ENT-03S cyclodextrin formulation after subcutaneous injection
Type: in vivo, rat
Conditions: male, Sprague-Dawley, rat, plasma, sc, 10 mg/kg, 20% beta-cyclodextrin formulation; 10 mg/kg SC; male SD rats; 48 h; individual rats; read-out: Concentration (ng/ml) Rat 1-3
TEST READOUT: concentration at 48 h
The answer consists of two parts: a number and, after it, its unit.

Request: Which measured concentration at 48 h value corresponds to C[C@H](CCC[C@H](C)C(=O)O)[C@H]1CCC2C3C(CC[C@@]21C)[C@@]1(C)CC[C@H](NCCCNCCCCNCCCN)C[C@@H]1C[C@H]3O (stereo partly drawn) [ENT-03S] ?
Response: 4080 ng/mL

====

Assay: Plasma pharmacokinetics of ENT-03S cyclodextrin formulation after subcutaneous injection
Assay type: in vivo, rat
Details: Sprague-Dawley, rat; 20% beta-cyclodextrin formulation; SC Dose 10 mg/kg; male SD rats; plasma; individual rats; read-out: Tmax
TEST READOUT: Tmax (h)
Give just the numeric value; h need not be written.

Request: Endpoint output: Tmax of C[C@H](CCC[C@H](C)C(=O)O)[C@H]1CCC2C3C(CC[C@@]21C)[C@@]1(C)CC[C@H](NCCCNCCCCNCCCN)C[C@@H]1C[C@H]3O (stereo partly drawn) [ENT-03S] . Value?
Response: 2

====

Experiment: Plasma pharmacokinetics of aqueous ENT-03S solution without cyclodextrin after subcutaneous injection
Assay type: in vivo, rat
Conditions: male, Sprague-Dawley, rat, plasma, sc, 10 mg/kg, 2 mg/ml, 10 mg/kg SC, male SD rats, 4 h, mean, read-out: Concentration Mean
TEST READOUT: concentration at 4 h (ng/mL)
Record the value in ng/mL, omitting the unit from your answer.

Request: What does the data say about its concentration at 4 h? Entry: C[C@H](CCC[C@H](C)C(=O)O)[C@H]1CCC2C3C(CC[C@@]21C)[C@@]1(C)CC[C@H](NCCCNCCCCNCCCN)C[C@@H]1C[C@H]3O (stereo partly drawn) [ENT-03S]
Response: 13700

====

Experiment: Plasma pharmacokinetics of aqueous ENT-03S solution without cyclodextrin after subcutaneous injection
Assay type: in vivo, rat
Conditions: male, Sprague-Dawley, rat, plasma, sc, 10 mg/kg, 2 mg/ml, 10 mg/kg SC, male SD rats, 24 h, mean, read-out: Concentration Mean
TEST READOUT: concentration at 24 h (ng/mL)
Your answer is read as ng/mL, so omit the unit and give the number.

Request: Sample C[C@H](CCC[C@H](C)C(=O)O)[C@H]1CCC2C3C(CC[C@@]21C)[C@@]1(C)CC[C@H](NCCCNCCCCNCCCN)C[C@@H]1C[C@H]3O (stereo partly drawn) [ENT-03S] — what was its concentration at 24 h?
Response: 45900

====

Assay: Plasma pharmacokinetics of ENT-03S cyclodextrin formulation after subcutaneous injection
Assay type: in vivo, rat
Conditions: male, Sprague-Dawley, rat, plasma, sc, 10 mg/kg, 20% beta-cyclodextrin formulation; 10 mg/kg SC; male SD rats; 0.25 h; mean; read-out: Concentration Mean
Experimental: In this example, ENT-03S was formulated with unmodified beta-cyclodextrin at a concentration of 25 mg/ml ENT-03, and 20% beta-cyclodextrin, pH 7.5, buffered with phosphate. Male Sprague-Dawley rats were administered the ENT-03-cyclodextrin formulation subcutaneous at a dose of 10 mg/kg. Blood samples were drawn from the tail vein at various times, the concentrations of ENT-03 determined, and PK parameters determined.
TEST READOUT: concentration at 0.25 h
Kindly report the value followed by its unit.

Request: // concentration at 0.25 h lookup, key: C[C@H](CCC[C@H](C)C(=O)O)[C@H]1CCC2C3C(CC[C@@]21C)[C@@]1(C)CC[C@H](NCCCNCCCCNCCCN)C[C@@H]1C[C@H]3O (stereo partly drawn) [ENT-03S]
Response: 22000 ng/mL

====

Assay: Plasma pharmacokinetics of aqueous ENT-03S solution without cyclodextrin after subcutaneous injection
Format: in vivo, rat
Conditions: male, Sprague-Dawley, rat, plasma, sc, 10 mg/kg, 2 mg/ml, 10 mg/kg SC, male SD rats, 8 h, mean, read-out: Concentration Mean
Method: The benefits provided by the aminosterol-cyclodextrin formulation disclosed herein can be appreciated by comparing the pharmacokinetics of an aqueous solution of ENT-03S in the absence of cyclodextrin at a concentration of ENT-03S of 2 mg/ml at […]. The dose chosen was the maximum ENT-03S concentration that could be delivered to the rat without causing visible local tissue necrosis. The experiment was conducted in male Sprague-Dawley rats following the same protocol as above. […]
TEST READOUT: concentration at 8 h (ng/mL)
Provide the reading as a plain figure in ng/mL.

Request: May I ask what concentration at 8 h has been recorded for C[C@H](CCC[C@H](C)C(=O)O)[C@H]1CCC2C3C(CC[C@@]21C)[C@@]1(C)CC[C@H](NCCCNCCCCNCCCN)C[C@@H]1C[C@H]3O (stereo partly drawn) [ENT-03S] ?
Response: 23800

====

Test: Plasma pharmacokinetics of ENT-03S cyclodextrin formulation after subcutaneous injection
Assay type: in vivo, rat
Details: male, Sprague-Dawley, rat, plasma, sc, 10 mg/kg, 20% beta-cyclodextrin formulation; 10 mg/kg SC; male SD rats; 1 h; mean; read-out: Concentration Mean
TEST READOUT: concentration at 1 h (ng/mL)
Numbers only here, please. The scale is ng/mL.

Request: Look up concentration at 1 h for this compound: C[C@H](CCC[C@H](C)C(=O)O)[C@H]1CCC2C3C(CC[C@@]21C)[C@@]1(C)CC[C@H](NCCCNCCCCNCCCN)C[C@@H]1C[C@H]3O (stereo partly drawn) [ENT-03S]
Response: 31800
